target: DAPK1 (Homo sapiens); construct: purchased Carna Biosciences; assay: Kinase panel profiling at 1 µmol/L (mobility shift assay, Carna); type: biochemical; conditions: 1 µmol/L of BTK inhibitor
Sequence (P53355 whole entry): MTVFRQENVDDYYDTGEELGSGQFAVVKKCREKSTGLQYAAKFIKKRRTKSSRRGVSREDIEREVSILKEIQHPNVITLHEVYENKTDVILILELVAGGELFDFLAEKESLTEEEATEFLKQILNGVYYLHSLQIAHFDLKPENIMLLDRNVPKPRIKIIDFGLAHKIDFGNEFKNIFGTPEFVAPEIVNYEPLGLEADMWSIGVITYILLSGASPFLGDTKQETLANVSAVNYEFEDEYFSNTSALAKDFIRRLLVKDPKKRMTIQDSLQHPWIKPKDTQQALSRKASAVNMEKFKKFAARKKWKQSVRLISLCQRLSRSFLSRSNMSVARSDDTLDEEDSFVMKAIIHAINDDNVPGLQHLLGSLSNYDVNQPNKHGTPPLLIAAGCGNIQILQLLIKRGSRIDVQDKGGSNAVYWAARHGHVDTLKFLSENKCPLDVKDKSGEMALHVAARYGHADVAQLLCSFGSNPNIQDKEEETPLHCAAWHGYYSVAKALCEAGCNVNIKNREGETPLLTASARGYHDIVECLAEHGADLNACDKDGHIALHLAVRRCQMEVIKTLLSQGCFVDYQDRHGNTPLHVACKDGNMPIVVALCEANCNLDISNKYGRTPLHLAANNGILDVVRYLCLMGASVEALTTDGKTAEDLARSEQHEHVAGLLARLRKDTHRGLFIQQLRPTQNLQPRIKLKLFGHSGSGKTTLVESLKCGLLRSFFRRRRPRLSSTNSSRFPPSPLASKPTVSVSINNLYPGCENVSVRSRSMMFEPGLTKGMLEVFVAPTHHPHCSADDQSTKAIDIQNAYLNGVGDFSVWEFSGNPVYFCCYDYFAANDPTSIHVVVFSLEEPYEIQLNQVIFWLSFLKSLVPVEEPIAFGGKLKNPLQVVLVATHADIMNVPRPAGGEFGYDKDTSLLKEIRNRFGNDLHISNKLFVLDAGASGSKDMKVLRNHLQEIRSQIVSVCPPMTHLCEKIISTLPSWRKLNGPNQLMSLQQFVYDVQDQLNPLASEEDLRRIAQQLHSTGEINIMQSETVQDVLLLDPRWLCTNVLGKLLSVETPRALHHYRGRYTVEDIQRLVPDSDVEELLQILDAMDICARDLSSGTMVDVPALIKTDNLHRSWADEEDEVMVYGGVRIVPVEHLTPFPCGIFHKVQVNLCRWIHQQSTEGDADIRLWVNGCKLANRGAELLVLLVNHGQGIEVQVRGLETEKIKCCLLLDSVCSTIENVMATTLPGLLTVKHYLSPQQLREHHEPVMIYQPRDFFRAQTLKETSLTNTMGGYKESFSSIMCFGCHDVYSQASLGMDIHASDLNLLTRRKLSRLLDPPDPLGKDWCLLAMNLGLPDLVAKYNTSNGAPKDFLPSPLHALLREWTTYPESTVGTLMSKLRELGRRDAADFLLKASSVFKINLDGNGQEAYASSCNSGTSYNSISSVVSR
Record form. Attribute: Percentage inhibition of kinase enzyme activity. Fill in for each entry.
Report only the number, with the unit % understood.

Note Percentage inhibition of kinase enzyme activity for the molecule shown: COc1ccc(F)cc1C(=O)NCc1ccc(-c2nn([C@@H](C)C(F)(F)F)c(N)c2C(N)=O)cc1 [pirtobrutinib]
-0.51

Kindly indicate its recorded Percentage inhibition of kinase enzyme activity. Item: O=C(c1ccc(Oc2ccccc2)cc1Cl)c1c[nH]c2ncnc(N[C@@H]3CC[C@@H](CO)OC3)c12 [nemtabrutinib]
-7.44

Look up and state reported Percentage inhibition of kinase enzyme activity for C=CC(=O)N1CCC[C@@H](n2nc(-c3ccc(Oc4ccccc4)cc3)c3c(N)ncnc32)C1 [ibrutinib]
-3.80

Using the record for CC#CC(=O)N1CCC[C@H]1c1nc(-c2ccc(C(=O)Nc3ccccn3)cc2)c2c(N)nccn12 [acalabrutinib] , state its measured Percentage inhibition of kinase enzyme activity.
-17.45

====

molecular target: MARK1 (Homo sapiens); construct: purchased Carna Biosciences; test: Kinase panel profiling at 1 µmol/L (mobility shift assay, Carna); type: biochemical; conditions: 1 µmol/L of BTK inhibitor
Sequence (Q9P0L2 whole entry): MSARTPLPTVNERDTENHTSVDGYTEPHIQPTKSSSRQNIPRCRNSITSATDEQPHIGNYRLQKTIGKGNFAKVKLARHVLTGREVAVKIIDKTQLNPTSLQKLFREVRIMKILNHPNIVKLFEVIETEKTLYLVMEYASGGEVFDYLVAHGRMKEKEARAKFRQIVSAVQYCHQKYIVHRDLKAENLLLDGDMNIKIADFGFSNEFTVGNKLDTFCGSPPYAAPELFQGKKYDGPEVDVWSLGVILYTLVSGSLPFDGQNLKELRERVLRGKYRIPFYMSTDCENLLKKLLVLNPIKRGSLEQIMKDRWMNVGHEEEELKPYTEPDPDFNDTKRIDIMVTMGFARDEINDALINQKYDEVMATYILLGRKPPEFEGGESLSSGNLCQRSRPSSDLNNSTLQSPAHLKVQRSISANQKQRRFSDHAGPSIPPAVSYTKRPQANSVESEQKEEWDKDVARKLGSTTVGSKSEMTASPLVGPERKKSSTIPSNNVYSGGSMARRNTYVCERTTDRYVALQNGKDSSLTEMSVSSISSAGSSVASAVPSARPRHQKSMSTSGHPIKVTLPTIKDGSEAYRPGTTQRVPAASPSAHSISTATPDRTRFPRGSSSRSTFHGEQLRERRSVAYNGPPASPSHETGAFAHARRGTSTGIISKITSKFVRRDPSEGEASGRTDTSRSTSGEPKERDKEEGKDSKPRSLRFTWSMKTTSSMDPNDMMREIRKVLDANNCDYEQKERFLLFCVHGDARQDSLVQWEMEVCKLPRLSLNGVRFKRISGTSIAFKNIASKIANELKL
Exercise: for every item that follows, state its recorded Percentage inhibition of kinase enzyme activity.
Express your answer in %, writing the number without its unit.

For the molecule `COc1ccc(F)cc1C(=O)NCc1ccc(-c2nn([C@@H](C)C(F)(F)F)c(N)c2C(N)=O)cc1` , give its measured Percentage inhibition of kinase enzyme activity value.
-8.44

Read off the recorded Percentage inhibition of kinase enzyme activity for `CC#CC(=O)N1CCC[C@H]1c1nc(-c2ccc(C(=O)Nc3ccccn3)cc2)c2c(N)nccn12`
-3.49

Recall and state the measured Percentage inhibition of kinase enzyme activity for `C=CC(=O)N1CCC[C@@H](n2nc(-c3ccc(Oc4ccccc4)cc3)c3c(N)ncnc32)C1` .
2.46

Recall and state the measured Percentage inhibition of kinase enzyme activity for `O=C(c1ccc(Oc2ccccc2)cc1Cl)c1c[nH]c2ncnc(N[C@@H]3CC[C@@H](CO)OC3)c12` .
2.15

====

Task for the reader: assign each of the following molecules its reported Percentage inhibition of kinase enzyme activity.
target: CHK2 (Homo sapiens); construct: purchased Carna Biosciences; assay: Kinase panel profiling at 1 µmol/L (mobility shift assay, Carna); assay type: biochemical; details: 1 µmol/L of BTK inhibitor
Sequence (O96017 whole entry): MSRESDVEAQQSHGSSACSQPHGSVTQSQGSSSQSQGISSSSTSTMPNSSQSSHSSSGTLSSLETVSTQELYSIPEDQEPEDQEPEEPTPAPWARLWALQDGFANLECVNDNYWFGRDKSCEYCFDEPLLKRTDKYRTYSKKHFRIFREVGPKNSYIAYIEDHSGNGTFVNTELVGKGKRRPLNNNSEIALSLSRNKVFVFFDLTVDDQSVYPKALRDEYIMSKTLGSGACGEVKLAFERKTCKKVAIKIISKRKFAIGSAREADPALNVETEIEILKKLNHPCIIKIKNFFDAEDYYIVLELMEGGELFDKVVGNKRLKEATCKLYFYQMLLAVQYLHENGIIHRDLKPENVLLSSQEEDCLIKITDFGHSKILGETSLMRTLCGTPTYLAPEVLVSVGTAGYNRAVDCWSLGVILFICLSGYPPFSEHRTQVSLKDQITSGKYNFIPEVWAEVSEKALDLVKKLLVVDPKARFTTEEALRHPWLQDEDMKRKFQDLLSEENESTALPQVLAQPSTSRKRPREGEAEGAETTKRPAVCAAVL
Please report the result as a number followed by the unit.

Dear colleague, please send me the reported Percentage inhibition of kinase enzyme activity for `CC#CC(=O)N1CCC[C@H]1c1nc(-c2ccc(C(=O)Nc3ccccn3)cc2)c2c(N)nccn12` when you can.
-5.77%

Kindly indicate its recorded Percentage inhibition of kinase enzyme activity. Item: `O=C(c1ccc(Oc2ccccc2)cc1Cl)c1c[nH]c2ncnc(N[C@@H]3CC[C@@H](CO)OC3)c12`
49.89%

Item `C=CC(=O)N1CCC[C@@H](n2nc(-c3ccc(Oc4ccccc4)cc3)c3c(N)ncnc32)C1` : provide Percentage inhibition of kinase enzyme activity
14.14%

Retrieve Percentage inhibition of kinase enzyme activity measured for `COc1ccc(F)cc1C(=O)NCc1ccc(-c2nn([C@@H](C)C(F)(F)F)c(N)c2C(N)=O)cc1` and print it.
7.28%

====

Please respond with reported Percentage inhibition of kinase enzyme activity for every item in the list.
molecular target: NEK2 (Homo sapiens); construct: purchased Carna Biosciences; test: Kinase panel profiling at 1 µmol/L (mobility shift assay, Carna); type: biochemical; details: 1 µmol/L of BTK inhibitor
Sequence (P51955 whole entry): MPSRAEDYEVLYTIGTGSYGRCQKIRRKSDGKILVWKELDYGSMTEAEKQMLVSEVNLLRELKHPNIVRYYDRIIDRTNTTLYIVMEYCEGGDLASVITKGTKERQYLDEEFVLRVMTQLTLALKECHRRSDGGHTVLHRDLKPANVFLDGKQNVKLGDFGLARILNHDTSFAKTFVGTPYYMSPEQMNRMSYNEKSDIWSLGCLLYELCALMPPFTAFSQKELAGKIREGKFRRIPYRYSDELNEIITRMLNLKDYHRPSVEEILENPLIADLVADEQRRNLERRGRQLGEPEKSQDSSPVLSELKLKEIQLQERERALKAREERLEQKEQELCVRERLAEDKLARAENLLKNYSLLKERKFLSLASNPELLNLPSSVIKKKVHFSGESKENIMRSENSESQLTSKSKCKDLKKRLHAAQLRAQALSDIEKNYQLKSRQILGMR
Answer format: numeric, % implied, no suffix.

For COc1ccc(F)cc1C(=O)NCc1ccc(-c2nn([C@@H](C)C(F)(F)F)c(N)c2C(N)=O)cc1 [pirtobrutinib] , write its Percentage inhibition of kinase enzyme activity.
2.00

Tell me Percentage inhibition of kinase enzyme activity reported for C=CC(=O)N1CCC[C@@H](n2nc(-c3ccc(Oc4ccccc4)cc3)c3c(N)ncnc32)C1 [ibrutinib]
6.64

Quick one: give measured Percentage inhibition of kinase enzyme activity for O=C(c1ccc(Oc2ccccc2)cc1Cl)c1c[nH]c2ncnc(N[C@@H]3CC[C@@H](CO)OC3)c12 [nemtabrutinib]
74.64

Please report Percentage inhibition of kinase enzyme activity for the following molecule: CC#CC(=O)N1CCC[C@H]1c1nc(-c2ccc(C(=O)Nc3ccccn3)cc2)c2c(N)nccn12 [acalabrutinib]
-6.35

====

target: NEK4 (Homo sapiens, UniProt P51957); construct: purchased Carna Biosciences; assay: Kinase panel profiling at 1 µmol/L (mobility shift assay, Carna); format: biochemical; settings: 1 µmol/L of BTK inhibitor
measurement.name: Percentage inhibition of kinase enzyme activity (%)
# value in %; strip the unit string

Output measured Percentage inhibition of kinase enzyme activity for this item: CC#CC(=O)N1CCC[C@H]1c1nc(-c2ccc(C(=O)Nc3ccccn3)cc2)c2c(N)nccn12 [acalabrutinib]
-4.76

State, in one line, measured Percentage inhibition of kinase enzyme activity of COc1ccc(F)cc1C(=O)NCc1ccc(-c2nn([C@@H](C)C(F)(F)F)c(N)c2C(N)=O)cc1 [pirtobrutinib]
-3.18

Indicate the recorded Percentage inhibition of kinase enzyme activity value for this compound: C=CC(=O)N1CCC[C@@H](n2nc(-c3ccc(Oc4ccccc4)cc3)c3c(N)ncnc32)C1 [ibrutinib]
4.65

// Input: O=C(c1ccc(Oc2ccccc2)cc1Cl)c1c[nH]c2ncnc(N[C@@H]3CC[C@@H](CO)OC3)c12 [nemtabrutinib] . Output its Percentage inhibition of kinase enzyme activity only.
7.11

In one line, give reported Percentage inhibition of kinase enzyme activity of the entry C=CC(=O)N1CCC([C@@H]2CCNc3c(C(N)=O)c(-c4ccc(Oc5ccccc5)cc4)nn32)CC1 [zanubrutinib] .
0.95

====

Assign Percentage inhibition of kinase enzyme activity to each entry below.
target: IKKα (Homo sapiens); construct: purchased Carna Biosciences; assay: Kinase panel profiling at 1 µmol/L (mobility shift assay, Carna); type: biochemical; conditions: 1 µmol/L of BTK inhibitor
Sequence (O15111 whole entry): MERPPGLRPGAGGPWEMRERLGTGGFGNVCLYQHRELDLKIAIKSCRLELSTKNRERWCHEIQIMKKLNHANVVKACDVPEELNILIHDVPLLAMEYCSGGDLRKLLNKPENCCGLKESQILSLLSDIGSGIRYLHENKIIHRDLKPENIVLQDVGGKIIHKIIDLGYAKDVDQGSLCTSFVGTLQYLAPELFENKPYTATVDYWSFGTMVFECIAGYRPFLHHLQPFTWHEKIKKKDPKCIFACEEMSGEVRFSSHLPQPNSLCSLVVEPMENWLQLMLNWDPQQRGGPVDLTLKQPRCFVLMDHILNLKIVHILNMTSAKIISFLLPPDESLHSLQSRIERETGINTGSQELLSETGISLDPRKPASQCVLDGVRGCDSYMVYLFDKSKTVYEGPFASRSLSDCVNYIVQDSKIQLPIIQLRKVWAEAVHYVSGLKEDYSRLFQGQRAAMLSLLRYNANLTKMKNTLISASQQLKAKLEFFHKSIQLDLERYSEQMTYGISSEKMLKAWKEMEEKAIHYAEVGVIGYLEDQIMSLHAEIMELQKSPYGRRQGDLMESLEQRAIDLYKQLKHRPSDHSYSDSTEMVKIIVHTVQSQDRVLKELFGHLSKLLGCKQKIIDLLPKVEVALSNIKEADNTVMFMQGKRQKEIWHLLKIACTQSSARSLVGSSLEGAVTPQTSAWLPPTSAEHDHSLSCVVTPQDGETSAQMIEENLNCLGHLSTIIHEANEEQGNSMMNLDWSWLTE
Could you give me the number in %? Just the number is fine.

Please tell me the measured Percentage inhibition of kinase enzyme activity for `O=C(c1ccc(Oc2ccccc2)cc1Cl)c1c[nH]c2ncnc(N[C@@H]3CC[C@@H](CO)OC3)c12` ; system: IKKα (Homo sapiens).
1.80

Answer briefly: Percentage inhibition of kinase enzyme activity recorded on IKKα (Homo sapiens) for `CC#CC(=O)N1CCC[C@H]1c1nc(-c2ccc(C(=O)Nc3ccccn3)cc2)c2c(N)nccn12`
-1.45

Give reported Percentage inhibition of kinase enzyme activity for `C=CC(=O)N1CCC([C@@H]2CCNc3c(C(N)=O)c(-c4ccc(Oc5ccccc5)cc4)nn32)CC1` (IKKα (Homo sapiens))
-9.91

Provide IKKα (Homo sapiens) Percentage inhibition of kinase enzyme activity reading for `COc1ccc(F)cc1C(=O)NCc1ccc(-c2nn([C@@H](C)C(F)(F)F)c(N)c2C(N)=O)cc1` .
-16.22

Provide Percentage inhibition of kinase enzyme activity, system IKKα (Homo sapiens), entry `C=CC(=O)N1CCC[C@@H](n2nc(-c3ccc(Oc4ccccc4)cc3)c3c(N)ncnc32)C1`
4.34

====

system: NCI-H661; assay: Cell viability assay (ATPlite); format: cell-based; conditions: Homo sapiens; NCI-H661 cell line, 72 hours incubation
measurement.name: IC50
Units required after the number.

For the compound `O=C(c1ccc(Oc2ccccc2)cc1Cl)c1c[nH]c2ncnc(N[C@@H]3CC[C@@H](CO)OC3)c12` , give its reported IC50.
2.38 µM

====

target: TRKA (Homo sapiens, UniProt P04629); construct: purchased Carna Biosciences; test: Kinase panel profiling at 1 µmol/L (mobility shift assay, Carna); format: biochemical; conditions: 1 µmol/L of BTK inhibitor
Sequence (P04629 33-796): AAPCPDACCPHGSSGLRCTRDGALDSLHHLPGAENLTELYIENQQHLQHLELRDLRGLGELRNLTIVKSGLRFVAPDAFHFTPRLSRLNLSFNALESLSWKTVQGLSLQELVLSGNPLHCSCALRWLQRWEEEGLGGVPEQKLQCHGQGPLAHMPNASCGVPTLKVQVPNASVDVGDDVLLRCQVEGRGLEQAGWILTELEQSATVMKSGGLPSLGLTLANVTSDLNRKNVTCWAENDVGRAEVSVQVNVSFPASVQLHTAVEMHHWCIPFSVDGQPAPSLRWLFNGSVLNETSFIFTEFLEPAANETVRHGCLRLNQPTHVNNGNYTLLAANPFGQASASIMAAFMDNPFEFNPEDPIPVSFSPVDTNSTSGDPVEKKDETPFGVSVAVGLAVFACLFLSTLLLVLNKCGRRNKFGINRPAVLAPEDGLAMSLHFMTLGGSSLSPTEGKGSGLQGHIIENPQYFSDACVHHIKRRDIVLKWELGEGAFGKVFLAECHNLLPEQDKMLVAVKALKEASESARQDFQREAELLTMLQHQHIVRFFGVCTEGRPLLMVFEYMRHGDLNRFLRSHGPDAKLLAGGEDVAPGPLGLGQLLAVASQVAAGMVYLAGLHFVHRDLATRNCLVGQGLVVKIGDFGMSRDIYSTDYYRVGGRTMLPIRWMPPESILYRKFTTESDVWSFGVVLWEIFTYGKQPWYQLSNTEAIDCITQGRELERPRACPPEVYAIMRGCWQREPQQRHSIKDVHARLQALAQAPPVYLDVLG
measurement.name: Percentage inhibition of kinase enzyme activity

Look up TRKA (Homo sapiens, UniProt P04629) data: Percentage inhibition of kinase enzyme activity of `COc1ccc(F)cc1C(=O)NCc1ccc(-c2nn([C@@H](C)C(F)(F)F)c(N)c2C(N)=O)cc1` , then report it.
4.28%

# return Percentage inhibition of kinase enzyme activity of `C=CC(=O)N1CCC[C@@H](n2nc(-c3ccc(Oc4ccccc4)cc3)c3c(N)ncnc32)C1` (system: TRKA (Homo sapiens, UniProt P04629))
59.18%

Consider the compound `CC#CC(=O)N1CCC[C@H]1c1nc(-c2ccc(C(=O)Nc3ccccn3)cc2)c2c(N)nccn12` tested on TRKA (Homo sapiens, UniProt P04629); state its Percentage inhibition of kinase enzyme activity.
12.80%

GET Percentage inhibition of kinase enzyme activity | system: TRKA (Homo sapiens, UniProt P04629) | item: `O=C(c1ccc(Oc2ccccc2)cc1Cl)c1c[nH]c2ncnc(N[C@@H]3CC[C@@H](CO)OC3)c12`
99.52%

====

Assign Percentage inhibition of kinase enzyme activity to each entry below.
Molecular target: EEF2K (Homo sapiens, UniProt O00418)
Construct: purchased Carna Biosciences
Sequence (O00418 1-725): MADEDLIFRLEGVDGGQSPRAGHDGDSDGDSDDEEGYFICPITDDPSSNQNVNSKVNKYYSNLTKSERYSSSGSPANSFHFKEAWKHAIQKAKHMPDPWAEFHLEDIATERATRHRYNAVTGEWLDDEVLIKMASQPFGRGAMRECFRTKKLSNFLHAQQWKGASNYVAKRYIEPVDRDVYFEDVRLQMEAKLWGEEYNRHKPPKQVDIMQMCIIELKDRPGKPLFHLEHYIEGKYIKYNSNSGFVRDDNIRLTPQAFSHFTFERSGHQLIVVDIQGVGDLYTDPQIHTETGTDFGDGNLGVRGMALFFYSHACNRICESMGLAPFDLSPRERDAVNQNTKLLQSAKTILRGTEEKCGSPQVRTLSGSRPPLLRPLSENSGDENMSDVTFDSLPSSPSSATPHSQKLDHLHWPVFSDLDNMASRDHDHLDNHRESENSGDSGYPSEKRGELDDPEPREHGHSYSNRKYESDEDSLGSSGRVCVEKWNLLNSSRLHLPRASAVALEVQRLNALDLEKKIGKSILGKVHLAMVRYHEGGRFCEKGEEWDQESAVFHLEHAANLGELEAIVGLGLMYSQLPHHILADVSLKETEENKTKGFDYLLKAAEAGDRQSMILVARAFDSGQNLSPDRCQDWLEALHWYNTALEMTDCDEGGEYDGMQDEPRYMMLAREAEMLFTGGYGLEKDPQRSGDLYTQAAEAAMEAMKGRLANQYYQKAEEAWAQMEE
Assay: Kinase panel profiling at 1 µmol/L (mobility shift assay, Carna)
Assay type: biochemical
Settings: 1 µmol/L of BTK inhibitor
Numeric answer only, unit % assumed.

Determine its reported Percentage inhibition of kinase enzyme activity: `O=C(c1ccc(Oc2ccccc2)cc1Cl)c1c[nH]c2ncnc(N[C@@H]3CC[C@@H](CO)OC3)c12`
0.24

Return Percentage inhibition of kinase enzyme activity (reported value) for this compound: `C=CC(=O)N1CCC[C@@H](n2nc(-c3ccc(Oc4ccccc4)cc3)c3c(N)ncnc32)C1`
1.15

Report Percentage inhibition of kinase enzyme activity for `COc1ccc(F)cc1C(=O)NCc1ccc(-c2nn([C@@H](C)C(F)(F)F)c(N)c2C(N)=O)cc1`
-0.12

Supply Percentage inhibition of kinase enzyme activity value. Item: `CC#CC(=O)N1CCC[C@H]1c1nc(-c2ccc(C(=O)Nc3ccccn3)cc2)c2c(N)nccn12`
-12.14
